Values were extracted from paper PMC6032411.

test system: HT-29 colon carcinoma cells; assay: Antiproliferative effects, crystal violet cell biomass assay, HT-29; format: cell-based; settings: 72 h incubation, crystal violet
Readout Kind: pIC50
Numbers only, as −log10 of the molar value.

Param readout = pIC50; param system = HT-29 colon carcinoma cells; param query = N.N.[Cl][Pt][Cl] [Cisplatin, reference compound] ; response: value 5.59

----------
system: HT-29 colon carcinoma cells; assay: Antiproliferative effects, crystal violet cell biomass assay, HT-29; format: cell-based; details: Homo sapiens, HT-29; 72 h incubation, crystal violet
pIC50: −log10 of the molar value.
Readout Kind: pIC50

Entry `CC(=O)Oc1ccccc1C(=O)O` : reported pIC50 = ? ≤ 4.30
